Provide the reported phosphorylation enrichment of each item.
Tested on: Fer (mouse);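 further: 11-residue human phosphosite peptides and single-mutation variants displayed on the E. coli surface, counted by deep sequencing, each peptide's frequency after selection divided by its frequency in the unselected input library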;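 further: frequency after pTyr selection over input frequency; kinase dosed for 20-30% of maximal phosphorylation in three min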
Assay procedure: phosphorylation enrichment, bacterial display (enrichment ratio); higher = better substrate or ligand; peptides without Tyr show the background
One number for each entry.

KELSSYKHLTL [SLIT2_Y776_N775S]; 0.497
LAVGDYMRRQK [ATM_Y1915_V1913G]; 0.504
KCCCIYEKPRS [PPP1R11_Y64_A69S]; 7.18
PSAVAYPKRSQ [MARK3_Y432_V429A]; 0.444
VHKEGYNKLNQ [ZNF676_Y98]; 0.367

Lab note: each sequence below needs its phosphorylation enrichment filled in.
1. FPRAWCRRSIA [KIAA1109_Y4272_Y4272C]
2. VDSNPYSRLVA [UBA5_Y53_M57V]
3. IGMIIYFARKA [VCAM1_Y718]

Response given:
0.455
0.785
0.417

The reported numbers originate from the supplement of paper PMC10065799.
